Tgt: Peroxisome proliferator-activated receptor gamma (Homo sapiens, UniProt P37231)
Sequence (P37231 whole entry, the tested form may be a part): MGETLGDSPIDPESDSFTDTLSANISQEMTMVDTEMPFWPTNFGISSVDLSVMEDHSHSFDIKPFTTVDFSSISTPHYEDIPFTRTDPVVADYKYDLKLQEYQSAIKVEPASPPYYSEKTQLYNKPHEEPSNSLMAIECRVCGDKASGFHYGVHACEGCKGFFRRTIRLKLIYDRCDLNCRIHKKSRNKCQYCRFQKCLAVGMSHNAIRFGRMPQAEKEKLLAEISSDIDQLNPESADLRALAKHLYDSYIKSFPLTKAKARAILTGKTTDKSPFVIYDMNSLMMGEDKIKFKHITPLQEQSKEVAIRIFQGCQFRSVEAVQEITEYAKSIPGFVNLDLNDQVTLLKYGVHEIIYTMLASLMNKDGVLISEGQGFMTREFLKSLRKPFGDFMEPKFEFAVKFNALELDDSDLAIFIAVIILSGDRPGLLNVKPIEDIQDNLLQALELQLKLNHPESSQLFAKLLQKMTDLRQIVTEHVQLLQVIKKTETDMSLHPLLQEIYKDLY
Assay protocol: Transactivation of Gal4 fused human PPARgamma LBD expressed in African green monkey COS7 cells after 42 hrs by dual luciferase reporter gene assay
Format: cell-based
Assay context: read-out: EC50
Value kind: pEC50
Numbers only, as −log10 of the molar value.

Record excerpt, results attached:
INSERT INTO assay_data (molecule, value_kind, data_value) VALUES
  ('CCCc1nc2cc(-c3ccc(Cl)cc3)ccc2n1Cc1ccc(-c2ccccc2C(=O)O)cc1', 'pEC50', 6.72),
  ('CCCc1nc2ccc(-c3cccc(O)c3)cc2n1Cc1ccc(-c2ccccc2C(=O)O)cc1', 'pEC50', 5.39),
  ('CCCc1nc2ccccc2n1Cc1ccc(-c2ccccc2C(=O)O)cc1', 'pEC50', 5.19),
  ('CCCc1nc2ccc(-c3cccc(OC)c3)cc2n1Cc1ccc(-c2ccccc2C(=O)O)cc1', 'pEC50', 5.87),
  ('CCCc1nc2ccc(-c3cccc(Cl)c3)cc2n1Cc1ccc(-c2ccccc2C(=O)O)cc1', 'pEC50', 6.11);

// moving on: another record for pEC50
Entry CCCc1nc2cc(-c3cccc(O)c3)ccc2n1Cc1ccc(-c2ccccc2C(=O)O)cc1 : reported pEC50 = ?
5.90
